Hello, the source for this data is ChEMBL document CHEMBL1201862, in case you need it.

Measured AC50 on Cytochrome P450 2C9 (Homo sapiens, UniProt P11712) follows.
Sequence (P11712 whole entry): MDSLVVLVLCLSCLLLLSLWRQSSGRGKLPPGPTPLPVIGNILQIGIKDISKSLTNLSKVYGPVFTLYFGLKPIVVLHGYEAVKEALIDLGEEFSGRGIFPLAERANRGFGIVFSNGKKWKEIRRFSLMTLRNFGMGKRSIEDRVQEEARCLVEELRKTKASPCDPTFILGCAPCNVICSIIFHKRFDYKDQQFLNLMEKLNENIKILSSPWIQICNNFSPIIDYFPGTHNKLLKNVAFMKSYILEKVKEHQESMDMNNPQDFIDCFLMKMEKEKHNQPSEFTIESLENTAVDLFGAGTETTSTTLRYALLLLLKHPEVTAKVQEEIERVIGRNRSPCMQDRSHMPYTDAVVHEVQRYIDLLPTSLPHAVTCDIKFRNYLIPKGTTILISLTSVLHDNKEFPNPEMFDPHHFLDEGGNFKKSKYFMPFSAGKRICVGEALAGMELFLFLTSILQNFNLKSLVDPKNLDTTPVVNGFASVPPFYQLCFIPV
Quantity Name: AC50

[
  {
    "Compound": "Cc1ccc(C)c(Nc2nc3nonc3nc2N2CCOCC2)c1",
    "Result": "0.355 µM (inconclusive)"
  },
  {
    "Compound": "C[C@@H](C(=O)Nc1ccc2ccccc2c1)[C@@H]1C[C@@]1(C)[C@@H](NC(=O)Oc1ccc(F)cc1)c1ccccc1",
    "Result": "0.251 µM (inconclusive)"
  },
  {
    "Compound": "COC(=O)[C@H](Cc1ccccc1)NC(=O)N1CCN(Cc2ccccc2)CC1",
    "Result": "0.01 µM (inconclusive)"
  },
  {
    "Compound": "CCc1ccc(OCC(=O)NC(=S)Nc2ccc(C)cc2C)c(Br)c1",
    "Result": "0.631 µM (inconclusive)"
  },
  {
    "Compound": "CCOC(=O)CSc1nnc(Cc2ccccc2)n1-c1cccc(Cl)c1",
    "Result": "39.8 µM (inconclusive)"
  },
  {
    "Compound": "Cc1cccc(Nc2ccccc2C(=O)OCC(=O)NCc2ccco2)c1C",
    "Result": "11.2 µM (inconclusive)"
  },
  {
    "Compound": "COC(=O)c1cc2c(ccn2-c2ccc(F)cc2)n1C(C)C",
    "Result": "22.4 µM (inconclusive)"
  },
  {
    "Compound": "Cc1ccccc1CSc1nsc(N)n1",
    "Result": "2 µM (inconclusive)"
  },
  {
    "Compound": "CCC(C)NC(=O)CCS(=O)(=O)c1ccc(Br)s1 (stereo unspecified)",
    "Result": "12.6 µM (inconclusive)"
  },
  {
    "Compound": "CC1(C)CCCN(C(=O)c2coc(=O)c(Br)c2)C1",
    "Result": "28.2 µM (inconclusive)"
  },
  {
    "Compound": "O=[N+]([O-])c1ccc(/C=N/Nc2cc(Cl)nc(-c3ccccc3)n2)cc1",
    "Result": "0.00562 µM (inconclusive)"
  }
]

====

- Measurement Target: Paired box protein Pax-8 (Homo sapiens)
- Sequence (Q06710 whole entry): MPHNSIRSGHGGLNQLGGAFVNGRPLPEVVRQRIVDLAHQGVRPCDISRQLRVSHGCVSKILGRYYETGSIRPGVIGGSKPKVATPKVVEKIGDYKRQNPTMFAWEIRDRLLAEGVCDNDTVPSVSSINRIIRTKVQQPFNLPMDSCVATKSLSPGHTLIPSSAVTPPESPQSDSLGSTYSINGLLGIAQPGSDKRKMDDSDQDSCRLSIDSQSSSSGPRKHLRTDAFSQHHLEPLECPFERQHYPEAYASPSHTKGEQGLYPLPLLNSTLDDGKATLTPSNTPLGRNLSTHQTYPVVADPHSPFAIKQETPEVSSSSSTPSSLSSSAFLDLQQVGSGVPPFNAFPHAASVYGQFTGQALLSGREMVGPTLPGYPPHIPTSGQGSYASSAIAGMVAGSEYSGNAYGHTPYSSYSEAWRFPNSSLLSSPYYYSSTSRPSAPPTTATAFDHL
- Assay Overview: inhibitors of PAX8-driven TPO luciferase reporter, dose response, RMG-I cells, cherry-pick (AID 687027);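 note: luciferase reporter driven by Pax8 target thyroperoxidase promoter measured by SteadyGlo luminescence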
- Type: functional, cell-based
Calls of active or inactive are those of the source. No rule for the calls is given here.

[
  {
    "Given Smiles": "CCOC(=O)c1c2c(n(Cc3ccccc3)c1C)C(=O)C(=O)c1ccccc1-2",
    "Measurement Target": "Paired box protein Pax-8 (Homo sapiens)",
    "AC50": "1.98 µM (active)"
  },
  {
    "Given Smiles": "COc1ccc(CN(C)C[C@H]2OCCCC[C@@H](C)Oc3ccc(NC(=O)Nc4ccc(F)cc4)cc3C(=O)N([C@@H](C)CO)C[C@@H]2C)cc1",
    "Measurement Target": "Paired box protein Pax-8 (Homo sapiens)",
    "AC50": "21.7 µM (active)"
  },
  {
    "Given Smiles": "N#C[C@@H]1[C@H](c2ccc(C#CC3CCCCC3)cc2)[C@H](CO)N1S(=O)(=O)c1ccccc1",
    "Measurement Target": "Paired box protein Pax-8 (Homo sapiens)",
    "AC50": "11.1 µM (active)"
  },
  {
    "Given Smiles": "C[C@@H]1CCCCO[C@@H](CN(C)C(=O)Nc2ccc(C(F)(F)F)cc2)[C@H](C)CN([C@H](C)CO)C(=O)c2cc(NS(=O)(=O)c3cccs3)ccc2O1",
    "Measurement Target": "Paired box protein Pax-8 (Homo sapiens)",
    "AC50": "8.64 µM (active)"
  },
  {
    "Given Smiles": "C[C@H](CO)N1C[C@H](C)[C@@H](CN(C)C(=O)C2CCCCC2)OCCCC[C@H](C)Oc2ccc(NS(=O)(=O)c3ccc(Cl)cc3)cc2C1=O",
    "Measurement Target": "Paired box protein Pax-8 (Homo sapiens)",
    "AC50": "8.51 µM (active)"
  },
  {
    "Given Smiles": "C[C@H]1CN([C@@H](C)CO)C(=O)c2cc(NS(=O)(=O)c3ccc(Cl)cc3)ccc2O[C@H]1CN(C)Cc1ccc(Cl)c(Cl)c1",
    "Measurement Target": "Paired box protein Pax-8 (Homo sapiens)",
    "AC50": "7.5 µM (active)"
  },
  {
    "Given Smiles": "Cn1nnnc1Sc1ncnc2scc(-c3ccc(F)cc3)c12",
    "Measurement Target": "Paired box protein Pax-8 (Homo sapiens)",
    "AC50": "4.15 µM (active)"
  },
  {
    "Given Smiles": "C[C@H]1CCCCO[C@@H](CN(C)Cc2ccc(C(F)(F)F)cc2)[C@@H](C)CN([C@@H](C)CO)C(=O)c2cc(NS(=O)(=O)c3ccc(Cl)cc3)ccc2O1",
    "Measurement Target": "Paired box protein Pax-8 (Homo sapiens)",
    "AC50": "4.39 µM (active)"
  },
  {
    "Given Smiles": "C[C@@H]1CCCCO[C@H](CN(C)Cc2ccc(Cl)c(Cl)c2)[C@@H](C)CN([C@@H](C)CO)C(=O)c2cc(NC(=O)Nc3ccc(F)cc3)ccc2O1",
    "Measurement Target": "Paired box protein Pax-8 (Homo sapiens)",
    "AC50": "6.33 µM (active)"
  },
  {
    "Given Smiles": "CC(C)N(CC(=O)Nc1ccc(Cl)cc1C(F)(F)F)C(=O)CCl",
    "Measurement Target": "Paired box protein Pax-8 (Homo sapiens)",
    "AC50": "5.06 µM (active)"
  },
  {
    "Given Smiles": "C[C@@H]1CN([C@H](C)CO)C(=O)c2cc(NC(=O)Nc3ccc(C(F)(F)F)cc3)ccc2O[C@@H](C)CCCCO[C@H]1CN(C)C(=O)NC1CCCCC1",
    "Measurement Target": "Paired box protein Pax-8 (Homo sapiens)",
    "AC50": "2.8 µM (active)"
  },
  {
    "Given Smiles": "COc1ccc(S(=O)(=O)Nc2ccc3c(c2)C(=O)N([C@H](C)CO)C[C@H](C)[C@@H](CN(C)Cc2ccc(C(F)(F)F)cc2)OCCCC[C@H](C)O3)cc1",
    "Measurement Target": "Paired box protein Pax-8 (Homo sapiens)",
    "AC50": "18.9 µM (active)"
  }
]
